Provide the recorded IC50 for the entries that follow.
# Target System: PTRGER4 (EP4) (Homo sapiens (Human), UniProt P35408)
# Sequence (P35408 whole entry, looked up): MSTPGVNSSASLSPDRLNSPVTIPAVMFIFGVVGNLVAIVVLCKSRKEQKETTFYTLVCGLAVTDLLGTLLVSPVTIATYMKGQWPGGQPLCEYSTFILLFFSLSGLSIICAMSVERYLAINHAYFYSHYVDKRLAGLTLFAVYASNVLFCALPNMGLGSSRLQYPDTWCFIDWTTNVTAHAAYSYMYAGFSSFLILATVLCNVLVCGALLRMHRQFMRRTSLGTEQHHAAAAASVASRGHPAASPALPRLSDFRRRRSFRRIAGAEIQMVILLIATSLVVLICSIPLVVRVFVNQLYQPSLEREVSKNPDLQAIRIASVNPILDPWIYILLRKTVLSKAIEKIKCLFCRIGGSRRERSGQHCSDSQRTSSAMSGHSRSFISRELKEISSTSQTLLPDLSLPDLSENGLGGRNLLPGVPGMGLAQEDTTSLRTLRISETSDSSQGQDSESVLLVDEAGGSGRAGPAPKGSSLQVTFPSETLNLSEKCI
# Test Summary: hEP4 b-arrestin assay (PathHunter HEK 293 PTGER4 b-arrestin cells)
# Type: cell-based
# Assay Setup: antagonistic activity on hEP4; mean where measured multiple times
# Description: The assay is using the PathHunter™ HEK 293 PTGER2 and PTGER4 b-arrestin cell lines from DiscoverX. The system is based on the Enzyme Fragment Complementation Technology. Two complementing fragments of the b-galactosidase enzyme are expressed within stably transfected cells. […] Twelve μl of reagent are transferred to the assay plate and incubate for 1 hour at room temperature in the dark. Luminescence counts are read on a BMG Fluostar Optima reader according to manufacturer's instructions. […]

For COc1c(-c2cc(NCCn3c(C)cc4c(OC)ccc(F)c43)ncn2)csc1C(=O)O the molecule record lists IC50 as 972 nM

Please fill in: IC50 reported for Cc1cc(F)cc2c1cc(C)n2CCNc1cc(-c2ccc3cn[nH]c3c2)ncn1 = 556 nM

So, COc1nc(-c2cc(NCCn3c(C)cc4c(OC)ccc(F)c43)ncn2)cs1 ? Its IC50 was 251 nM

The molecule listed as CCCc1cc(-c2cc(NCCn3c(C)cc4c(C#N)ccc(F)c43)ncn2)ccc1C(=O)O shows IC50 equal to 745 nM

Record CCCc1cc(-c2cc(NCCn3c(C)cc4c(C)cccc43)ncn2)ccc1C(=O)O . Reported IC50: 495 nM

Memo: CCOc1cc(-c2cc(NCCn3c(C)cc4c(OC)cccc43)ncn2)sc1C(=O)O , reported IC50: 22 nM

The molecule identified as Cc1cc2c(Cl)cc(Cl)cc2n1CCNc1cc(-c2cc(Cl)c(C(=O)O)s2)ncn1 registered its IC50 at 240 nM

The measured IC50 associated with Cc1cc(F)cc2c1cc(C)n2CCNc1cc(-c2ccc(-c3ccon3)cc2)ncn1 reads 299 nM

Measured IC50, CCc1cc(-c2cc(NCCn3c(C)cc4ccccc43)ncn2)sc1C(=O)O : 911 nM

IC50 recorded for this molecule, COc1cc(F)cc2c1cc(C)n2CCNc1cc(-c2ccc(-c3ccns3)cc2)ncn1 , is 334 nM

The recorded IC50 for entry CCOc1cc(-c2cc(NCCn3c(C)cc4c(Cl)cc(F)cc43)ncn2)ccc1C(=O)O equals 652 nM

IC50 recorded for this molecule, CCOc1cc(-c2cc(NCCn3c(C)cc4c(C)cc(F)cc43)ncn2)ccc1C(=O)O , is 294 nM

Kindly note the recorded IC50 for CCc1cc(-c2cc(NCCn3c(C)cc4cc(Cl)cc(F)c43)ncn2)sc1C(=O)O , which is 216 nM

// recorded IC50 for CCCc1cc(-c2cc(NCCn3c(C)cc4c(OC)ccc(F)c43)ncn2)ccc1C(=O)O : 76 nM

The reported IC50 of the molecule COc1cc(F)cc2c1cc(C)n2CCNc1cc(-c2ccc(-c3nc(C)no3)cc2)ncn1 was 358 nM

IC50 in this record for CCc1cc(-c2cc(NCCn3c(C)cc4c(OC)cccc43)ncn2)sc1C(=O)O : 46 nM

Reported IC50 ( COc1ccc(F)c2c1cc(C)n2CCNc1cc(-c2cc(Cl)c(C(=O)O)s2)ncn1 ) = 27 nM

###

# Target System: UniProtKB P43116
# Sequence (P43116 whole entry): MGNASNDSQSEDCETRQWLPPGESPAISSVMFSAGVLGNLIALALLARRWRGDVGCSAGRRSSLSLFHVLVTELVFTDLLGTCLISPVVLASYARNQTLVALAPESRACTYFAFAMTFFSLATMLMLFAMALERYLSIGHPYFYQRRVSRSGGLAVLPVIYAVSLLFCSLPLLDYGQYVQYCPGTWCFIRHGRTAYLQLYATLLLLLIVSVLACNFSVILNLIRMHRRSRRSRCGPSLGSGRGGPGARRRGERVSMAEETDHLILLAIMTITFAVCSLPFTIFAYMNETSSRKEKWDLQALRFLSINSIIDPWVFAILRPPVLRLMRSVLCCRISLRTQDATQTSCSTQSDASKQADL
# Test Summary: hEP2 b-arrestin assay (PathHunter HEK 293 PTGER2 b-arrestin cells)
# Format: cell-based
# Assay Setup: hEP2 b-arrestin assay (values without asterisk)
So I've got a bunch of molecules here, and I need their IC50 values.
All answers are understood in nM, so give the number only.

So for COc1ccc(F)c2c1cc(C#N)n2CCNc1cc(-c2ccc3[nH]cnc3c2)ncn1 [Example 984] , the logged IC50 turned out to be 8

get_value(item= COc1ccc(F)c2c1cc(C#N)n2CCNc1cc(-c2ccc(O)c(OC(F)(F)F)c2)ncn1 [Example 866] , readout=IC50) returns 8

The reported IC50 of the molecule CCOc1cc(-c2cc(NCCn3c(C#N)cc4c(OC)ccc(F)c43)ncn2)sc1C(=O)NC [Example 1023] was 8

###

# Target System: PTRGER4 (EP4) (Homo sapiens (Human), UniProt P35408)
# Test Summary: hEP4 b-arrestin assay (PathHunter HEK 293 PTGER4 b-arrestin cells)
# Type: cell-based
# Assay Setup: hEP4 b-arrestin assay (values without asterisk)
IC50 strictly less than 30 nM = t. Otherwise f.

Take the molecule COc1ccc(F)c2c1cc(C#N)n2CCNc1cc(-c2c[nH]c3cnccc23)ncn1 and say whether its IC50 is less than 30 nM.
t

For CCOc1cc(-c2cc(NCCn3c(C)cc4c(OC)ccc(F)c43)ncn2)ccc1OCC(=O)O , is the recorded IC50 below the cut-off of 30 nM?
t

Does the reported IC50 of the following molecule sit strictly below 30 nM? CCOc1cc(-c2cc(NCC(C)n3c(C)cc4c(OC)ccc(F)c43)ncn2)sc1C(=O)O (racemic)
f

Field: below-cutoff. Rule: recorded IC50 strictly less than 30 nM. Subject: COc1ccc(F)c2c1cc(C#N)n2CCNc1cc(-c2ccc(O)c(C(F)(F)F)c2)ncn1
t

For this molecule, is IC50 lower than 30 nM? CCc1cc(-c2cc(NCCn3c(C#N)cc4c(OC)ccc(F)c43)ncn2)ccc1OCC(=O)O
t

Does the reported IC50 of the following molecule sit strictly below 30 nM? CCCCOc1cc(-c2cc(NCCn3c(C#N)cc4c(OC)ccc(F)c43)ncn2)ccc1C(=O)O
t

API: query returns whether the molecule falls strictly under 30 nM in IC50. Query: COc1nc(-c2cc(NCCn3c(C)cc4c(OC)ccc(F)c43)ncn2)sc1C(=O)O
f

Confirm or reject: IC50 of CCOc1cc(-c2cc(NCCn3c(C#N)cc4c(OC)cc(F)c(F)c43)ncn2)ccc1NCC(=O)O lies strictly below 30 nM
t

Could you please tell me whether IC50 recorded for CCOc1cc(-c2cc(NCCn3c(C#N)cc4c(OC)ccc(F)c43)ncn2)sc1C(=O)OCC(=O)N(C)C is less than 30 nM?
t

For Cc1ccc(F)c2c1cc(C#N)n2CCNc1cc(-c2cc(C(F)(F)F)c(C(=O)O)s2)ncn1 , is the recorded IC50 below the cut-off of 30 nM?
t

Please indicate whether the reported IC50 of CCOc1cc(-c2cc(NCCn3c(C#N)cc4c(OC)ccc(F)c43)ncn2)sc1C(=O)NCCOC is strictly below 30 nM.
t

I'd appreciate it if you could check whether COCCOc1ccc(-c2cc(NCCn3c(C#N)cc4c(OC)ccc(F)c43)ncn2)cc1 has IC50 smaller than 30 nM.
f

Strictly below 30 nM in IC50? CCc1cc(-c2cc(NCCn3c(C#N)cc4c(OC)ccc(F)c43)ncn2)ccc1C(=O)O
f

Say whether its IC50 is strictly beneath 30 nM. Entry: COc1ccc(F)c2c1cc(C#N)n2CCNc1cc(-c2ccc(OCCO)cc2)ncn1
t

Hello, I'm reviewing records and need to know if IC50 of COc1ccc(F)c2c1cc(C#N)n2CCNc1cc(-c2ccc(OCC(=O)O)c(OC(F)(F)F)c2)ncn1 is below 30 nM. Could you check?
t

Strictly below 30 nM in IC50? COc1ccc(F)c2c1cc(C#N)n2CCNc1cc(-c2ccc(C(O)CO)cc2)ncn1 (racemic)
f

Item COc1ccc(F)c2c1cc(C)n2CCNc1cc(-c2ccc(-c3csc(O)n3)cc2)ncn1 : IC50 beneath 30 nM, strictly?
f

###

# Target System: PTRGER4 (EP4) (Homo sapiens (Human), UniProt P35408)
# Test Summary: hEP4 b-arrestin assay (PathHunter HEK 293 PTGER4 b-arrestin cells)
# Assay type: cell-based
# Assay Setup: antagonistic activity on hEP4; mean where measured multiple times
Classify: t when IC50 is strictly less than 500 nM; f when IC50 is not.

Is it true that IC50 reported for CCOc1cc(-c2cc(NCCn3c(C)cc4c(OC)ccc(C)c43)ncn2)sc1C(=O)O is less than 500 nM?
t

# strict comparison: is reported IC50 < 500 nM? input = COc1ccc(F)c2c1cc(C)n2CCNc1cc(-c2cc(C)c(C(=O)O)c(C)c2)ncn1
t

Strictly below 500 nM: is that where IC50 of CCCc1cc(-c2cc(NCCn3c(C)cc4c(F)ccc(F)c43)ncn2)ccc1C(=O)O sits?
f

Hi there! Is IC50 for COc1cc(-c2cc(NCCn3c(C)cc4c(OC)ccc(F)c43)ncn2)ccc1C(=O)O below 500 nM, do you know?
f

Does Cc1ccc(F)c2c1cc(C)n2CCNc1cc(-c2ccc(S(N)(=O)=O)c(C(F)(F)F)c2)ncn1 have IC50 strictly under 500 nM?
t

IC50 strictly < 500 nM for this molecule? COc1cccc2c1cc(C)n2CCNc1cc(-c2ccc(-c3noc(C)n3)cc2)ncn1
f

Quick check: IC50 of Cc1ccc(F)c2c1cc(C)n2CCNc1cc(-c2ccc3c(c2)CC(=O)N3)ncn1 under 500 nM?
t

Problem: For the molecule CCc1cc(-c2cc(NCCn3c(C)cc4c(C)ccc(F)c43)ncn2)ccc1C(=O)O , is IC50 under 500 nM?
t

Field: below-cutoff. Rule: recorded IC50 strictly less than 500 nM. Subject: Cc1cc2c(F)ccc(F)c2n1CCNc1cc(-c2ccc(C(=O)O)c(CC(C)C)c2)ncn1
f
